Origin of the recorded values: the supplement of paper PMC5998384

system: HeLa Kyoto; assay: solubility change mitosis vs G1/S (difference of NP-40 vs SDS log2 ratios) (log2 ratio difference); higher = more soluble in mitosis;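 also: synchronized HeLa Kyoto cells (double thymidine block for G1/S, nocodazole release for mitosis), protein amounts in NP-40 versus SDS lysates quantified by mass spectrometry, three biological replicates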
measure_name: solubility change mitosis (log2)

[[record]]
seq_string = "MEGLGRSCLWLRRELSPPRPRLLLLDCRSRELYESARIGGALSVALPALLLRRLRRGSLSVRALLPGPPLQPPPPAPVLLYDQGGGRRRRGEAEAEAEEWEAESVLGTLLQKLREEGYLAYYLQGGFSRFQAECPHLCETSLAGRAGSSMAPVPGPVPVVGLGSLCLGSDCSDAESEADRDSMSCGLDSEGATPPPVGLRASFPVQILPNLYLGSARDSANLESLAKLGIRYILNVTPNLPNFFEKNGDFHYKQIPISDHWSQNLSRFFPEAIEFIDEALSQNCGVLVHCLAGVSRSVTVTVAYLMQKLHLSLNDAYDLVKRKKSNISPNFNFMGQLLDFERSLRLEERHSQEQGSGGQASAASNPPSFFTTPTSDGAFELAPT [DUSP9]"
target_of_assay = "HeLa Kyoto"
result = -0.104

